assay-target: T1, Human CD3eg linker (human)
T1 construct: Single-chain construct; also called recombinant human CD3
T1 chain: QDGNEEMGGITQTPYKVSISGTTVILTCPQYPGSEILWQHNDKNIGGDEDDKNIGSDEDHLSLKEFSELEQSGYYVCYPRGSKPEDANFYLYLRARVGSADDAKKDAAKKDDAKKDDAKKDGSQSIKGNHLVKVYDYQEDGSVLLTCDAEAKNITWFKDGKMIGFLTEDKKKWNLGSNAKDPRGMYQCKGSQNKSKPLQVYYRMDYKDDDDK
experiment-notes: SPR; fold vs parent H183/L072
For each entry below, report its fold change of affinity value.
Please state the number and follow it with the unit.

Request: May I ask what fold change of affinity has been recorded for H183/L072 VL P56G (antibody, name in Kabat numbering, V domains shown) VH: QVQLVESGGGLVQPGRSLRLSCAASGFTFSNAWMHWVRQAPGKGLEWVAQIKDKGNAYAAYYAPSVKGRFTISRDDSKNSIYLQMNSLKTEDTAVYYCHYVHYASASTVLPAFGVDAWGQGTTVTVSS VL: DIVMTQSPLSLPVTPGEPASISCQASQELVHMNRNTYLHWYQQKPGQAPRLLIYKVSNRFGGVPDRFSGSGSGTDFTLKISRVEAEDVGVYYCAQGTSVPFTFGQGTKLEIK ?
Response: 3.7 fold

Request: Try H183/L072 VL S93N (antibody, name in Kabat numbering, V domains shown) VH: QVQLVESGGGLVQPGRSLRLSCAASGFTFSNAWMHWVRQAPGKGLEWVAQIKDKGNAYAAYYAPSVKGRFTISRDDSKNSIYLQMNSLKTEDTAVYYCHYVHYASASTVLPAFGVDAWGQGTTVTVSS VL: DIVMTQSPLSLPVTPGEPASISCQASQELVHMNRNTYLHWYQQKPGQAPRLLIYKVSNRFPGVPDRFSGSGSGTDFTLKISRVEAEDVGVYYCAQGTNVPFTFGQGTKLEIK next.
Response: 0.8 fold

Request: # repeat for H183/L072 VL T97F (antibody, name in Kabat numbering, V domains shown) VH: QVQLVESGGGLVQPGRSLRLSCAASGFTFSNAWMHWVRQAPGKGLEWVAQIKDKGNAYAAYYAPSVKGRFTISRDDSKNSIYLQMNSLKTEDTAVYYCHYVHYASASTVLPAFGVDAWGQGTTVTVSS VL: DIVMTQSPLSLPVTPGEPASISCQASQELVHMNRNTYLHWYQQKPGQAPRLLIYKVSNRFPGVPDRFSGSGSGTDFTLKISRVEAEDVGVYYCAQGTSVPFFFGQGTKLEIK
Response: 0.3 fold

Request: Same question for H183/L072 VL E27aA (antibody, name in Kabat numbering, V domains shown) VH: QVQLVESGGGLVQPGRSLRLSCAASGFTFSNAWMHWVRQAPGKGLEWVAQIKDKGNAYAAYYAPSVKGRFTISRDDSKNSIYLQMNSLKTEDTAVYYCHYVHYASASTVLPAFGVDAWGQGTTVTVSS VL: DIVMTQSPLSLPVTPGEPASISCQASQALVHMNRNTYLHWYQQKPGQAPRLLIYKVSNRFPGVPDRFSGSGSGTDFTLKISRVEAEDVGVYYCAQGTSVPFTFGQGTKLEIK please.
Response: 1.2 fold

Request: Entry to check: H183/L072 VL Y32S (antibody, name in Kabat numbering, V domains shown) VH: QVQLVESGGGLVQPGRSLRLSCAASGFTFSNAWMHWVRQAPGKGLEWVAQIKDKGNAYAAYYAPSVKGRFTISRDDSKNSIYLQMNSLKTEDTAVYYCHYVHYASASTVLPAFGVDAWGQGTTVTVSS VL: DIVMTQSPLSLPVTPGEPASISCQASQELVHMNRNTSLHWYQQKPGQAPRLLIYKVSNRFPGVPDRFSGSGSGTDFTLKISRVEAEDVGVYYCAQGTSVPFTFGQGTKLEIK
Response: 0 fold

Request: Then this binder: H183/L072 VL N30A (antibody, name in Kabat numbering, V domains shown) VH: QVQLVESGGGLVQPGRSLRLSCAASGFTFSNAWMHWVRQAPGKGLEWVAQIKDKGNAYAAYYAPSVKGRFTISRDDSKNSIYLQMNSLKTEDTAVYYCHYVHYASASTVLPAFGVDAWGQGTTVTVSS VL: DIVMTQSPLSLPVTPGEPASISCQASQELVHMNRATYLHWYQQKPGQAPRLLIYKVSNRFPGVPDRFSGSGSGTDFTLKISRVEAEDVGVYYCAQGTSVPFTFGQGTKLEIK
Response: 0.3 fold

Request: Now consider H183/L072 VL P56L (antibody, name in Kabat numbering, V domains shown) VH: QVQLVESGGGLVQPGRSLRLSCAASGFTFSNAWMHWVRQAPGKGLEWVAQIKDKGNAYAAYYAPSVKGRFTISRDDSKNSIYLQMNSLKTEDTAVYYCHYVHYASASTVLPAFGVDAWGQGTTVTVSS VL: DIVMTQSPLSLPVTPGEPASISCQASQELVHMNRNTYLHWYQQKPGQAPRLLIYKVSNRFLGVPDRFSGSGSGTDFTLKISRVEAEDVGVYYCAQGTSVPFTFGQGTKLEIK .
Response: 3.1 fold

Request: Now the binder H183/L072 VL V51E (antibody, name in Kabat numbering, V domains shown) VH: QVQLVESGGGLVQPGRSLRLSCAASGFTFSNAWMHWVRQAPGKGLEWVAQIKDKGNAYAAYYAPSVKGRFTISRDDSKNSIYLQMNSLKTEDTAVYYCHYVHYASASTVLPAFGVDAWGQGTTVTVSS VL: DIVMTQSPLSLPVTPGEPASISCQASQELVHMNRNTYLHWYQQKPGQAPRLLIYKESNRFPGVPDRFSGSGSGTDFTLKISRVEAEDVGVYYCAQGTSVPFTFGQGTKLEIK
Response: 0.4 fold

Request: Now try H183/L072 VL Q24E (antibody, name in Kabat numbering, V domains shown) VH: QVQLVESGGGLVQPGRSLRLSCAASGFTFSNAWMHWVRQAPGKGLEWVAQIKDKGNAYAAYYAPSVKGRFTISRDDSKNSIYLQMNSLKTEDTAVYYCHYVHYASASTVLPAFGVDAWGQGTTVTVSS VL: DIVMTQSPLSLPVTPGEPASISCEASQELVHMNRNTYLHWYQQKPGQAPRLLIYKVSNRFPGVPDRFSGSGSGTDFTLKISRVEAEDVGVYYCAQGTSVPFTFGQGTKLEIK .
Response: 0 fold

Request: Would you mind doing H183/L072 VL R29S (antibody, name in Kabat numbering, V domains shown) VH: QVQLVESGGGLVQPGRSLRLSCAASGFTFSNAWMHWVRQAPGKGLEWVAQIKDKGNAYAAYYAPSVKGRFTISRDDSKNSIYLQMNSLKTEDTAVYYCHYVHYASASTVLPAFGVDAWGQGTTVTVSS VL: DIVMTQSPLSLPVTPGEPASISCQASQELVHMNSNTYLHWYQQKPGQAPRLLIYKVSNRFPGVPDRFSGSGSGTDFTLKISRVEAEDVGVYYCAQGTSVPFTFGQGTKLEIK as well?
Response: 0.8 fold
